# assay_text: NCI Yeast Anticancer Drug Screen. Data for the rad50 strain (AID 155);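 also: 0% = growth of vehicle-only cultures of the same strain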
# settings: S. cerevisiae rad50 strain growth inhibition; at 50.0 µM; stronger effect = higher value
The panel holds about 79,000 compounds, 15% with a hit somewhere; the sample as a whole holds those more often.
Entries and their growth inhibition
measured_property: growth inhibition (%)

• Cn1c(=O)c2c(ncn2C2C(=O)NNC2=O)n(C)c1=O = -7.15
• N#CCCn1c(CCC(=O)Nc2ccc(Cl)cc2Cl)n[nH]c1=S = -8.4
• c1ccc(C(C2=Nc3cccc4cccc(c34)N2)c2ccccc2)cc1 = -36.6
• COc1ccc(CC[n+]2cccc(/C(=N/O)c3ccccc3)c2)cc1OC = 46.9
• CCCCCCCCCCCCCCCCn1/c(=N\N=O)sc2ccccc21 = -9.65
• COc1cc(OC)c(C(C)=O)cc1OC = -9.2
• CCC(C)CCC(N)C(=O)O (stereo unspecified) = 2.3
• NC(=O)c1ncn2c(=O)n(CCl)nnc12 = 57.4
• CCOC(=O)CCC(NC(=O)c1ccc(Nc2nc3ccccc3nc2C(=O)OCC)cc1)C(=O)OCC (stereo unspecified) = 11.8
• C=CCOc1ccc(C2C(C(=O)OC)C(=O)CC(O)(c3ccccc3)C2C(=O)OC)cc1OC (stereo unspecified) = -63.2
• NC(=NC1CCCCC1)c1ccc(C(=O)OCC2CCCCC2)cc1 = 39.2
